Reference for the values: ChEMBL document CHEMBL1158518

# Tested on: PBMC
# method notes: Antiinflammatory activity in rat PBMC assessed as inhibition of LPS-induced TNFalpha production after 20 hrs by ELISA
pIC50: −log10 of the molar value.
Entry flag: Condition met if pIC50 reaches 7; Condition not met if it does not.

Record excerpt, results attached:
                                   compound                cat
0  CCNC(=O)[C@H]1O[C@@H](n2cnc3c(N)ncnc32)[C@H](O)[C@@H]1O [NECA]  Condition not met
1  CCC(=O)N[C@H]1C[C@@H](n2cnc3c(NC(CC)CC)nc(NCCc4cn(CC)cn4)nc32)[C@H](O)[C@@H]1O  Condition not met
2  CCn1nnc([C@H]2O[C@@H](n3cnc4c(N)nc(N[C@H](CO)Cc5ccccc5)nc43)[C@H](O)[C@@H]2O)n1 [GW-328267]      Condition met
3  CCC(CC)CNc1nc(NCCc2cn(CC)cn2)nc2c1ncn2[C@@H]1C[C@H](n2cc(CO)cn2)[C@@H](O)[C@H]1O  Condition not met

// next entry
INPUT: Kindly determine if pIC50 recorded for `CCC(=O)N[C@H]1C[C@@H](n2cnc3c(NC(CC)CC)nc(NCCc4cn(C(C)C)cn4)nc32)[C@H](O)[C@@H]1O` is above or exactly 7.
OUTPUT: Condition not met

----------
pIC50 values, listed per item
# measured target: Adenosine receptor A2a (Homo sapiens)
# Sequence (P29274 whole entry): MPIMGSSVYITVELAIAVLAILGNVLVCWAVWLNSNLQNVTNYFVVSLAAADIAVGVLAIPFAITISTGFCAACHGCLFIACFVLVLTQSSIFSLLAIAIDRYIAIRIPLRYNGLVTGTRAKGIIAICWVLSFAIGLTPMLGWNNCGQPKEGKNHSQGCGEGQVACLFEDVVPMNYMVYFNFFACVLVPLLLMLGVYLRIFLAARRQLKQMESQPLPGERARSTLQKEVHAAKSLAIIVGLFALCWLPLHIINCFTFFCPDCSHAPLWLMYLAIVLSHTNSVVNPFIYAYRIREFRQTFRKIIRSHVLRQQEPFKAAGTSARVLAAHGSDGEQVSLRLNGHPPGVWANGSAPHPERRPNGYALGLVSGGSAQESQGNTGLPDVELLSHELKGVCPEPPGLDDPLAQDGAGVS
Just so you know, pIC50 here is -log10 of the concentration in molar units; reply with that number alone.

Solved entries (count: 3):
>>> print(df.to_string())
                           smiles_structure  attribute_measured  assay_value
0  CCCC(=O)N[C@H]1C[C@@H](n2cnc3c(NCC(c4ccccc4)c4ccccc4)nc(NCCc4cn(C(C)C)cn4)nc32)[C@H](O)[C@@H]1O               pIC50         6.80
1  CCc1cnn([C@H]2C[C@@H](n3cnc4c(N)nc(N[C@H](CO)Cc5ccccc5)nc43)[C@H](O)[C@@H]2O)c1               pIC50         7.21
2  CCC(=O)N[C@H]1C[C@@H](n2cnc3c(NCC(c4ccccc4)c4ccccc4)nc(NCCc4cn(C)cn4)nc32)[C@H](O)[C@@H]1O               pIC50         8.33

API: the following record is the query input.
INPUT: What measured pIC50 is associated with `CCC(=O)N[C@H]1C[C@@H](n2cnc3c(NC(CC)CC)nc(NCCc4cn(C(C)C)cn4)nc32)[C@H](O)[C@@H]1O` on Adenosine receptor A2a (Homo sapiens)?
OUTPUT: 8.08

----------
pKi values, listed per item
# measured target: Adenosine receptor A2a (Homo sapiens)
# method notes: biochemical
Just so you know, pKi here is -log10 of the concentration in molar units; reply with that number alone.

INPUT: # get_value(readout='pKi', item= `CC(C)C(=O)N[C@H]1C[C@@H](n2cnc3c(NCC(c4ccccc4)c4ccccc4)nc(NCCc4cn(C(C)C)cn4)nc32)[C@H](O)[C@@H]1O` )
OUTPUT: 7.57

INPUT: Okay, and `Nc1nc(N[C@H](CO)Cc2ccccc2)nc2c1ncn2[C@@H]1C[C@H](n2cccn2)[C@@H](O)[C@H]1O` ?
OUTPUT: 6.15

INPUT: Okay, and `CCC(=O)N[C@H]1C[C@@H](n2cnc3c(NCC(c4ccccc4)c4ccccc4)nc(NCCc4cn(C)cn4)nc32)[C@H](O)[C@@H]1O` ?
OUTPUT: 8.34

INPUT: Okay, and `CCCCC#Cc1nc(N)c2ncn([C@@H]3C[C@H](NC(=O)CC)[C@@H](O)[C@H]3O)c2n1` ?
OUTPUT: 7.74

----------
Target chain: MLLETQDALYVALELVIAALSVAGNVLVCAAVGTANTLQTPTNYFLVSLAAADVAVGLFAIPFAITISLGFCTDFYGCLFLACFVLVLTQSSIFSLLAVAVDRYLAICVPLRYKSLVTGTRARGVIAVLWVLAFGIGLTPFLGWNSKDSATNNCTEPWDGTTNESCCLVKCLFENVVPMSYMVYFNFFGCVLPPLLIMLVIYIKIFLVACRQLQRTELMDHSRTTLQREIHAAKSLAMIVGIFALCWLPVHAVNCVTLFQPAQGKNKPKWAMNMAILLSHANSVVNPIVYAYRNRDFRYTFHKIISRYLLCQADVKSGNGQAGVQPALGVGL
attribute measured: EC50

                           smiles_structure  assay_value
0  Cc1cnn([C@H]2C[C@@H](n3cnc4c(N)nc(N[C@H](CO)Cc5ccccc5)nc43)[C@H](O)[C@@H]2O)c1      > 10 µM
1  CCCCC#Cc1nc(N)c2ncn([C@@H]3C[C@H](NC(=O)CC)[C@@H](O)[C@H]3O)c2n1      > 10 µM
2  CCC(=O)N[C@H]1C[C@@H](n2cnc3c(NCC(c4ccccc4)c4ccccc4)nc(NCCc4c[nH]cn4)nc32)[C@H](O)[C@@H]1O      > 10 µM
3  CCC(=O)N[C@H]1C[C@@H](n2cnc3c(NC(CC)CC)nc(NCCc4cn(CC)cn4)nc32)[C@H](O)[C@@H]1O      > 10 µM
4  CCC(CC)CNc1nc(NCCc2cn(CC)cn2)nc2c1ncn2[C@@H]1C[C@H](n2cc(CO)cn2)[C@@H](O)[C@H]1O      > 10 µM

INPUT: # get_value(readout='EC50', item= `CCc1cnn([C@H]2C[C@@H](n3cnc4c(N)nc(N[C@H](CO)Cc5ccccc5)nc43)[C@H](O)[C@@H]2O)c1` )
OUTPUT: > 10 µM

----------
# measured target: Adenosine receptor A2a (Homo sapiens)
Please note: IC50 exactly at 5 nM is NO. Only values below 5 nM get YES.

>>> print(df.to_string())
                                   molecule                        measured_target  cat
0  CC(C)n1cnc(CCNc2nc(NCC(c3ccccc3)c3ccccc3)c3ncn([C@@H]4C[C@H](NC(=O)C5CCC5)[C@@H](O)[C@H]4O)c3n2)c1  Adenosine receptor A2a (Homo sapiens)   NO

INPUT: Input `CCC(=O)N[C@H]1C[C@@H](n2cnc3c(NC(CC)CC)nc(NCCc4cn(CC)cn4)nc32)[C@H](O)[C@@H]1O` ; condition: IC50 strictly below 5 nM. Does it hold?
OUTPUT: YES

INPUT: Okay, and `CCCCC#Cc1nc(N)c2ncn([C@@H]3C[C@H](NC(=O)CC)[C@@H](O)[C@H]3O)c2n1` ?
OUTPUT: NO

INPUT: Okay, and CCn1nnc([C@H]2O[C@@H](n3cnc4c(N)nc(N[C@H](CO)Cc5ccccc5)nc43)[C@H](O)[C@@H]2O)n1 [GW-328267] ?
OUTPUT: YES

INPUT: Okay, and `CCC(CC)CNc1nc(NCCc2cn(CC)cn2)nc2c1ncn2[C@@H]1C[C@H](n2cc(CO)cn2)[C@@H](O)[C@H]1O` ?
OUTPUT: NO

INPUT: Okay, and `CC(C)n1cnc(CCNc2nc(NCC(c3ccccc3)c3ccccc3)c3ncn([C@@H]4C[C@H](NC(=O)C5CC5)[C@@H](O)[C@H]4O)c3n2)c1` ?
OUTPUT: NO

INPUT: Okay, and `CCC(=O)N[C@H]1C[C@@H](n2cnc3c(NCC(c4ccccc4)c4ccccc4)nc(NCCc4c[nH]cn4)nc32)[C@H](O)[C@@H]1O` ?
OUTPUT: NO

----------
# measured target: UniProt:P30542
# Sequence (P30542 whole entry): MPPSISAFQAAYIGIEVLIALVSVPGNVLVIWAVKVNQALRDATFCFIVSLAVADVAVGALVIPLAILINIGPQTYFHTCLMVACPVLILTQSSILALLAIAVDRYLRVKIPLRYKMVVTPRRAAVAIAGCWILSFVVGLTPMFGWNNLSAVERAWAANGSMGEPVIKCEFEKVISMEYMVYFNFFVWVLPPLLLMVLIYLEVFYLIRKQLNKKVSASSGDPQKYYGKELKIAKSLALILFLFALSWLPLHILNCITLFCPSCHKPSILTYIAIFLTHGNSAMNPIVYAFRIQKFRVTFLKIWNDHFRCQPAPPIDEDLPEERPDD
# method notes: Agonist activity at human adenosine A1 receptor expressed in CHO cells by GTPPgammaS binding assay
EC50 values, listed per item

>>> df
                           smiles_structure  attribute_measured  assay_value
0  CC(C)n1cnc(CCNc2nc(NCC(c3ccccc3)c3ccccc3)c3ncn([C@@H]4C[C@H](NC(=O)C5CC5)[C@@H](O)[C@H]4O)c3n2)c1                EC50      > 10 µM
1  CCC(CC)CNc1nc(NCCc2cn(CC)cn2)nc2c1ncn2[C@@H]1C[C@H](n2cc(CO)cn2)[C@@H](O)[C@H]1O                EC50       4.1 µM
2  CCn1nnc([C@H]2O[C@@H](n3cnc4c(N)nc(N[C@H](CO)Cc5ccccc5)nc43)[C@H](O)[C@@H]2O)n1                EC50     0.882 µM

INPUT: # get_value(readout='EC50', item= `Cc1cnn([C@H]2C[C@@H](n3cnc4c(N)nc(N[C@H](CO)Cc5ccccc5)nc43)[C@H](O)[C@@H]2O)c1` )
OUTPUT: > 10 µM

INPUT: Okay, and `CCC(=O)N[C@H]1C[C@@H](n2cnc3c(NCC(c4ccccc4)c4ccccc4)nc(NCCc4cn(C)cn4)nc32)[C@H](O)[C@@H]1O` ?
OUTPUT: > 10 µM

INPUT: Okay, and `CCc1cnn([C@H]2C[C@@H](n3cnc4c(N)nc(N[C@H](CO)Cc5ccccc5)nc43)[C@H](O)[C@@H]2O)c1` ?
OUTPUT: > 10 µM

INPUT: Okay, and `CCCCC#Cc1nc(N)c2ncn([C@@H]3C[C@H](NC(=O)CC)[C@@H](O)[C@H]3O)c2n1` ?
OUTPUT: > 10 µM
